test.system: T1, cyno TF ECD-His (cTF-his) (monkey (cyno))
T1 construct: also called bio-cTF-his; monkey TF-His protein
T1 chain: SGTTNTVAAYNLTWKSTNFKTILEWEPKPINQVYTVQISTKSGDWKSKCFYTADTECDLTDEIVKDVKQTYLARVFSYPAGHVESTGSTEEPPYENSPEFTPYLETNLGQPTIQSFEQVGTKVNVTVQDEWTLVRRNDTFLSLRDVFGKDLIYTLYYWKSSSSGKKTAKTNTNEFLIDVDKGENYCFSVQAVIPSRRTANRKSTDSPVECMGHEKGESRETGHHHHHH
test: SPR Biacore T200, antibody on Protein A chip, TF-His as analyte, 1:1 model
kon overview
I only need the number, in M⁻¹ s⁻¹, no unit after it.

*Q* Given the binder hu67-10 (antibody, human IgG1, kappa, V domains shown) VH: EVTLKQSGPVLVKPTQTLTLTCTVSGFSLTNYGVNWIRQPPRKGLEWLGVIWSRGNTDYNAAFISRLTISKDNSKSQVVLKMTNMDPVDTATYYCARKDAVVATDALDYWGQGTTVTVSS VL: DIQMTQSPSSLSASVGDRVTITCKASQDVSTAVAWYQQKPGKAPKLLIYSTSYRYTGVPSRFSGSGSGTDFTFTISSLQPEDIATYYCQQHYSTPYTFGGGTKVEIKR , what is its reported kon?
*A* 40000

*Q* Given the binder chimeric antibody CH67 (antibody, human IgG1, kappa, V domains shown, Murine 67# variable regions + human constant regions) VH: QVQLKQSGPGLVQPSQSLSITCIVSGFSLTNYGVNWVRQSPRKGLEWLGVIWSRGNTDYNAAFISRLIISKDNSKSQVFLKMNRLQADDTAIYYCARKDAVVATDALDYWGQGTSVTVSS VL: DIVMTQSHKFMSTSLGDRVSITCKASQDVSTAVAWYQQKPGQSPKLLIYSTSYRYTGVPDRFTGSGSGTDFTFTISSVQAEDLAVYYCQQHYSTPYTFGGGTKLEIKR , what is its reported kon?
*A* 29500

*Q* Given the binder hu10H10-29 (antibody, V domains shown, H11+L1; Full-length IgG) VH: EVQLVQSGSELKKPGASVKVSCKASGYTFITYWIEWVKQRPGQGLEWMGDILPYSGSTNYNENFKGRATFSADTSVSTAYLQISSLKAEDTAVYYCARSGYYGNSGFAYWGQGTLVTVSS VL: DIQMTQSPSSLSASVGDRVTITCKSSQSLLSSGNQKNYLTWYQQKPGKAPKLLIYWASTRESGVPSRFSGSGSGTDFTLTISSLQPEDFATYYCQNDYTYPLTFGQGTKLEIK , what is its reported kon?
*A* 153000

*Q* Given the binder hu67-8 (antibody, human IgG1, kappa, V domains shown) VH: EVQLQESGPGLVKPSQTLSLTCTVSGFSLTNYGVNWIRQPPRKGLEWIGVIWSRGNTDYNAAFISRVTISKDNSKSQVSLKLSSVTAADTAVYYCARKDAVVATDALDYWGQGTTVTVSS VL: DIVMTQSPKSLAVSLGERATINCKASQDVSTAVAWYQQKPGQSPKLLIYSTSYRYTGVPDRFSGSGSGTDFTFTISSLQAEDVAVYYCQQHYSTPYTFGGGTKVEIKR , what is its reported kon?
*A* 32500

*Q* Given the binder hu67-5 (antibody, human IgG1, kappa, V domains shown) VH: EVTLKQSGPVLVKPTQTLTLTCTVSGFSLTNYGVNWIRQPPRKALEWLAVIWSRGNTDYNAAFISRLTISKDTSKSQVVLKMTNMDPVDTATYYCARKDAVVATDALDYWGQGTTVTVSS VL: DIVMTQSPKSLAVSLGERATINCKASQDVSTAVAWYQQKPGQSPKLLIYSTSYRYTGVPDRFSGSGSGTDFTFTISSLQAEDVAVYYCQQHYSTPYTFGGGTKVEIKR , what is its reported kon?
*A* 25800

*Q* Given the binder hu67Y116 (antibody, human IgG1, kappa, V domains shown) VH: EVQLQESGPGLVKPSQTLSLTCTVSGFSLTNYGVNWIRQSPGKGLEWIGVIWSRGNTDYNAAFKSRVTISKDTSKNQVSLKLSSVTAADTAVYYCARKDAIVATDALDYWGQGTTVTVSS VL: DIQMTQSPSSLSASVGDRVTITCKASQDVQTAVAWYQQKPGKAPKLLIYSTHYRYTGVPSRFSGSGSGTDFTFTISSLQPEDIATYYCLQSYTLPFSFGGGTKVEIKR , what is its reported kon?
*A* 35000

*Q* Given the binder hu10H10-53 (antibody, V domains shown, H11+L6; Full-length IgG) VH: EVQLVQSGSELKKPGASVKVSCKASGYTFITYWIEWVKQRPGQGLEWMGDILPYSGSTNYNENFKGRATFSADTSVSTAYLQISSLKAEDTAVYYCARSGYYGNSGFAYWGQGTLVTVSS VL: DIQMTQSPSSLSASVGDRVTITCKSSQSLLSSSNQKNYLTWYQQKPGKAPKLLIYWASTREEGVPSRFSGSGSGTDFTLTISSLQPEDFATYYCQNDYTYPLTFGQGTKLEIK , what is its reported kon?
*A* 181000

*Q* Given the binder hu67-7 (antibody, human IgG1, kappa, V domains shown) VH: EVQLQESGPGLVKPSQTLSLTCTVSGFSLTNYGVNWIRQPPGKGLEWIGVIWSRGNTDYNAAFISRVTISKDTSKNQVSLKLSSVTAADTAVYYCARKDAVVATDALDYWGQGTTVTVSS VL: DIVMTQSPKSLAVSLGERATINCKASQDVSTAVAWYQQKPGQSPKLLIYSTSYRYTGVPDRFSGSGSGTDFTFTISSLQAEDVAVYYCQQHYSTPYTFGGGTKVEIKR , what is its reported kon?
*A* 34200

*Q* Given the binder hu67-9 (antibody, human IgG1, kappa, V domains shown) VH: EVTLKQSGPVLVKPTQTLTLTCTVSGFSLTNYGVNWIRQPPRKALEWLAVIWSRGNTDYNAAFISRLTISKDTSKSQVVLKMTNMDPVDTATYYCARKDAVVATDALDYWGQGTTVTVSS VL: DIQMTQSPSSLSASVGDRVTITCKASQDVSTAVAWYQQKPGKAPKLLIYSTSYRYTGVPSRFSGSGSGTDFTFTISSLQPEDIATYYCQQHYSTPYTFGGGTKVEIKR , what is its reported kon?
*A* 32400

*Q* Given the binder hu67-1 (antibody, human IgG1, kappa, V domains shown) VH: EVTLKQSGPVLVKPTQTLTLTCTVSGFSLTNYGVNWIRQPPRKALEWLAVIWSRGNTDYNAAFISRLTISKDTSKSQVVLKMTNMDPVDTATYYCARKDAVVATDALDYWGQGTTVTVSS VL: DIVMTQSPKSLAVSLGERATINCKASQDVSTAVAWYQQKPGQPPKLLIYSTSYRYTGVPDRFSGSGSGTDFTLTISSLQAEDVAVYYCQQHYSTPYTFGGGTKVEIKR , what is its reported kon?
*A* 24100
